Test system: thymus glands
Assay: Effect of selected steroid derivatives on thymus weight (systemic effect)
Assay type: in vivo, Sprague-Dawley rats
Details: 48 hours after burn and application of 0.03 M steroid in isopropyl myristate; lower weight = more pronounced systemic effect; Control 233.5 ± 11.5
assay-endpoint: Thymus Weight (mg)
Answers are plain numbers, in mg.

Use these answered entries as a reference point.
C[C@]12CCC(=O)C=C1CC[C@@H]1[C@@H]2[C@@H](O)C[C@@]2(C)[C@H]1CC[C@]2(O)C(=O)CO [Hydrocortisone] ... 190.3
CCCC(=O)O[C@]1(C(=O)CO)CC[C@H]2[C@@H]3CCC4=CC(=O)CC[C@]4(C)[C@H]3[C@@H](O)C[C@@]21C [Hydrocortisone 17-butyrate] ... 149.6
CC(=O)OCC(=O)[C@@]1(O)CC[C@H]2[C@@H]3CCC4=CC(=O)CC[C@]4(C)[C@H]3[C@@H](O)C[C@@]21C [Hydrocortisone 21-acetate] ... 177.2

Let us move to another entry and its Thymus Weight.
Problem: Find the recorded Thymus Weight belonging to CC1(C)O[C@@H]2C[C@H]3[C@@H]4CCC5=CC(=O)C=C[C@]5(C)[C@@]4(F)[C@@H](O)C[C@]3(C)[C@]2(C(=O)CO)O1 [Triamcinolone acetonide] and report it.
Solution: 65.3
